Biological target: WT Spike (SARS-CoV2)
VALUE TYPE: Response

{"BINDER": "RBD-R3-E1-A5 Ab (Ab_30) scFv-Fc (scFv, V domains shown) VH: QVQLVQSGGGVVQPGKSLRLSCTASGFTFSDFPIHWVRQAPGKGLEWVGVISYDGNIKYYGDSVKGRFTISRDNAKNSLYLQMNSLRVEDTAVYYCARGGSSFDIWGQGTTVTVSS VL: SYELTQPPSVSEAPRQRVTISCSGSTSNIGNNAVSWYQHLPGKAPKLLIYYNERLPSGVSDRFSGSKSGTSASLAISGLRSEDEADYYCAAWDDSLSGHVVFGGGTKLTVL", "RECORDED RESULT": 0.107}
{"BINDER": "S1-RBD-R3-T1-F5 (Ab2-7) scFv-Fc (scFv, V domains shown) VH: QVTLKESGPTRVKPTQTLTLTCTFSGFSLSTTGVGVGWIRQPPGKALEWLALIYWNDDKRYSPSLKSRLTITKDTSKNQVVLTMTNMDPVDTATYYCARISGSGYFYPFDIWGQGTTVTVSS VL: NFMLTQPHSVSESPGKTVTISCTRSSGSIASNYVQWYQQRPGSSPTTVIYEDNQRPSGVPDRFSGSIDSSSNSASLTISGLKAEDEADYYCQSYDSSSLWVFGGGTKLTVL", "RECORDED RESULT": 0.0672}
{"BINDER": "Ab_28 scFv-Fc (scFv, V domains shown) VH: QVTLKESGPGLVNPSETLSLTCTVSGASISNSFWSWIRQSPGKGLEWIGYTSYSGNSIYNPSLKSRLTMSIDTSKNQLSLNLRSLTAADTAVYYCARREWIKGHFDYWGQGTLVTVSS VL: NFMLTQPHSVSESPGKTVTISCTGSGGSIASNYVQWYQQRPGSAPTTVIYEDNQRPSGVPDRFSGSIDSSSNSASLTISGLKTEDEADYYCQSYDSSNPVVFGGGTKLTVL", "RECORDED RESULT": 0.132}
{"BINDER": "Ab_19 scFv-Fc (scFv, V domains shown) VH: EVQLVESGAEVKKPGESLKISCKGSGYSFTSYWIGWVRQMPGKGLEWMGIIYPGDSDTRYSPSFQGQVTISADKSISTAYLQWSSLKASDTAMYYCARRGDLDAFDIWGQGTMVTVSS VL: QPGLTQPPAASGTPGQRVTVSCSGASANIGSNAVSWFKQFPETAPRLLISGNTHRPSGVPDRVSGSKSGTSASLTISGLQSDDEADYYCAAWDDSLNGYVFGSGTKVTVL", "RECORDED RESULT": 0.121}
